- System: KARPAS-422 cells
- assay_notes: Cell proliferation analysis, KARPAS-422, 13 days, CellTiter-Glo
- Type: cell-based
- particulars: Homo sapiens, 312 h
observable: IC50 (µM)

Examples with answers:
q: GET IC50 | system: KARPAS-422 cells | item: Cc1cn2cccc(-c3cnc(NCc4c(F)ccc5c4CCO5)n4cnnc34)c2n1
a: 0.0024

q: GET IC50 | system: KARPAS-422 cells | item: Cc1ccc(-c2cnc(NCc3c(F)ccc4c3CCO4)n3cnnc23)c2ncc(CCO)n12
a: 0.0024

q: GET IC50 | system: KARPAS-422 cells | item: NC(=O)c1cnc2c(-c3cnc(NCc4c(F)ccc5c4CCO5)n4cnnc34)cccn12
a: 0.0037

(P) Fc1ccc2c(c1CNc1ncc(-c3cc(Cl)cn4ccnc34)c3nncn13)CCO2
(Q) Fc1ccc2c(c1CNc1ncc(-c3ccc4ccnn4c3)c3nncn13)CCO2
q: Field: entry with larger IC50 (options P / Q ). Refer to your chosen entry by its label in the reply.
a: P

(I) Cc1nc2c(-c3cnc(NCc4c(F)ccc5c4CCO5)n4cnnc34)ccc(C)n2n1
(II) Cc1ccc(-c2cnc(NCc3c(F)ccc4c3CCO4)n3cnnc23)c2ncc(C)n12
q: Which record shows the lower IC50: the first, I , or the second, II ? Refer to your chosen entry by its label in the reply.
a: I

(A) O=S1(=O)C=Cc2cc(-c3cnc(NCc4c(F)ccc5c4[C@@H]4C[C@@H]4O5)n4cnnc34)ccc21
(B) O=S1(=O)C=Cc2cc(-c3cnc(NCc4c(F)ccc5c4[C@H]4C[C@H]4O5)n4cnnc34)ccc21
q: Field: entry with larger IC50 (options A / B ). Refer to your chosen entry by its label in the reply.
a: A
(A: 0.0038 µM, B: 0.0007 µM)

---

- measurement_target: EED protein (His6-tagged full-length) binding to H3K27me3 polypeptide (Homo sapiens, UniProt O75530)
- Construct: His6-tagged full-length EED protein (441 amino acids)
- Sequence (O75530 whole entry): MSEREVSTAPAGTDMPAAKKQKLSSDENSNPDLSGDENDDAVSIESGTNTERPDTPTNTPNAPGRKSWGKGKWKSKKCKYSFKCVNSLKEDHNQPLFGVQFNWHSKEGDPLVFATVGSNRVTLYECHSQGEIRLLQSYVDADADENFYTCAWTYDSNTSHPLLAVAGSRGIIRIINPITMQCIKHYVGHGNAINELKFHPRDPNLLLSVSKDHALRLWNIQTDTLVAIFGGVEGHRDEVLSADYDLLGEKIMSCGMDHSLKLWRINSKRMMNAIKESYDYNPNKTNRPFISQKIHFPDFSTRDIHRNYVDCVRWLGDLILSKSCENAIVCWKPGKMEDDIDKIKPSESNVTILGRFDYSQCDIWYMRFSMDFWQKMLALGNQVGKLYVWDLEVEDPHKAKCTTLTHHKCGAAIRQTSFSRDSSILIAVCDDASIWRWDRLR
- assay_notes: AlphaScreen evaluation of blocking the binding of EED to H3K27Me3
- particulars: EED 60 nM, biotinylated H3K27me3 75 nM, 30 minutes incubation
observable: IC50 (µM)

q: Entry Fc1ccc2c(c1CNc1ncc(-c3cccn4ccnc34)c3nncn13)CCO2 needs its IC50 filled in; supply it.
a: 0.0044

q: Entry Fc1ccc2c(c1CNc1ncc(-c3cccn4ccnc34)c3nncn13)[C@H]1C[C@H]1O2 needs its IC50 filled in; supply it.
a: 0.0035

(P) Cc1ccc(-c2cnc(NCc3c(F)ccc4c3CCO4)n3cnnc23)c2ncc(F)n12
(Q) Fc1ccc2c(c1CNc1ncc(-c3c(C(F)(F)F)ccc4nsnc34)c3nncn13)CCO2
q: Field: entry with larger IC50 (options P / Q ). Refer to your chosen entry by its label in the reply.
a: Q

(A) Cc1ccc(-c2cnc(NCc3c(F)ccc4c3CCO4)n3cnnc23)c2ncc(C)n12
(B) Cc1ccc(-c2cnc(NCc3c(F)ccc4c3CCO4)n3cnnc23)c2ncc(CC(=O)N(C)C)n12
q: Which record shows the lower IC50: the first, A , or the second, B ? Refer to your chosen entry by its label in the reply.
a: A

(I) CC1=CS(=O)(=O)c2ccc(-c3cnc(NCc4c(F)ccc5c4[C@H]4C[C@H]4O5)n4cnnc34)cc21
(II) Fc1ccc2c(c1CNc1ncc(-c3cc(Cl)cn4cc(C(F)(F)F)nc34)c3nncn13)CCO2
(III) Fc1ccc2c(c1CNc1ncc(-c3cccn4c(Cc5ccccc5)cnc34)c3nncn13)CCO2
(IV) Fc1ccc2c(c1CNc1ncc(-c3ccn4ccnc4c3)c3nncn13)CCO2
q: Your job: order these 4 records by IC50, ascending. Your answer should be the labels, listed in the requested order.
a: III, I, II, IV

(I) Fc1cc(-c2cnc(NCc3c(F)ccc4c3CCO4)n3cnnc23)c2nccn2c1
(II) CC(=O)c1c(C)nc2c(-c3cnc(NCc4c(F)ccc5c4CCO5)n4cnnc34)cc(F)cn12
q: Field: entry with larger IC50 (options I / II ). Refer to your chosen entry by its label in the reply.
a: II
(II: 0.016 µM, I: 0.0049 µM)
